system: MCF7; assay: Antiproliferative activity against human MCF7 cells after 48 hrs by CCK8 assay; type: functional, cell-based; settings: MCF7, 48 h
Readout Label: IC50 (nM)
Answers are plain numbers, in nM.

Some entries whose results are on file:
{"Structure Smiles": "COc1ccc(Nc2nc(Nc3cc(C)[nH]n3)cc(N3CCN(C)CC3)n2)cc1OC", "IC50, nM": 6540}
{"Structure Smiles": "Cc1cc(Nc2cc(N3CCOCC3)nc(Nc3ccc(F)c(Cl)c3)n2)n[nH]1", "IC50, nM": 577}
{"Structure Smiles": "Cc1cc(Nc2cc(N3CCN(C)CC3)nc(Nc3ccc(F)cc3)n2)n[nH]1", "IC50, nM": 873}
{"Structure Smiles": "Cc1cc(Nc2cc(N3CCN(C)CC3)nc(Nc3ccc4c(c3)OCO4)n2)n[nH]1", "IC50, nM": 911}
{"Structure Smiles": "Cc1cc(Nc2cc(N3CCN(C)CC3)nc(Nc3ccc(Cl)c(F)c3)n2)n[nH]1", "IC50, nM": 818}

Dear reader, for each entry below, please note its IC50.
1. Cc1cc(Nc2cc(N3CCN(C)CC3)nc(Nc3cccc(F)c3)n2)n[nH]1
2. Cc1cc(Nc2cc(N3CCN(C)CC3)nc(Nc3ccc(F)c(Cl)c3)n2)n[nH]1
3. Cc1cc(Nc2cc(N3CCN(C)CC3)nc(Nc3ccc(Cl)c(Cl)c3)n2)n[nH]1
4. Cc1cc(Nc2cc(N3CCN(C)CC3)nc(Nc3ccc(F)c(F)c3)n2)n[nH]1

[A]
[1260, 213, 552, 1290]

Dear reader, for each entry below, please note its IC50.
1. COC(=O)c1ccc(Nc2nc(Nc3cc(C)[nH]n3)cc(N3CCN(C)CC3)n2)cc1OC
2. COC(=O)c1ccc(Nc2nc(Nc3cc(C)[nH]n3)cc(N3CCN(C)CC3)n2)cc1F

[A]
1. 10300
2. 7630

All figures here come from ChEMBL document CHEMBL4145494.
